- System: Leishmania major
- procedure_details: ST_JUDE: Cytotoxicity using Alamar Blue to measure viability of Leishmania major
- Type: functional, organism-based
pEC50: −log10 of the molar value.
measured_metric: pEC50

Incoming: I have this compound here, CC(C)(C)NC(=O)c1cn(C2CCCCC2)cc(C(=O)NC2CCN(Cc3ccccc3)C2)c1=O (stereo not given) , and I need its recorded pEC50.
Outgoing: < 4.91

Incoming: I have this compound here, "C/C=C/c1n(C)c2ccccc2[n+]1C" , and I need its recorded pEC50.
Outgoing: < 4.76

Incoming: I have this compound here, "Cc1cc(Nc2ccc(Br)c(C)c2)n2nc(C)nc2n1" , and I need its recorded pEC50.
Outgoing: < 4.79

Incoming: I have this compound here, COc1ccc(C2CC(=O)C3=C(C2)NC(=O)CC3c2ccc(Br)cc2)cc1OC (stereo not given) , and I need its recorded pEC50.
Outgoing: < 4.69

Incoming: I have this compound here, Cc1ccc(C2CC(C(F)(F)F)n3nc(C(=O)N4CCN(C(c5ccccc5)c5ccccc5)CC4)cc3N2)cc1 (stereo not given) , and I need its recorded pEC50.
Outgoing: < 4.74

Incoming: I have this compound here, "O=[N+]([O-])c1ccc2c(c1)c1ccccc1n2Cc1ccccc1O" , and I need its recorded pEC50.
Outgoing: < 4.82

Incoming: I have this compound here, COc1ccc(C2CC(=O)C3=C(C2)NC(=O)CC3c2ccc(C(F)(F)F)cc2)cc1OC (stereo not given) , and I need its recorded pEC50.
Outgoing: < 4.69

Incoming: I have this compound here, "Cc1ccc2c(c1)N(C)/C(=C/c1cccc[n+]1C)S2" , and I need its recorded pEC50.
Outgoing: 7.97

Incoming: I have this compound here, CC(=O)c1cccc(NC(=O)C2c3ccccc3C(=O)N(CC(C)C)C2c2cccs2)c1 (stereo not given) , and I need its recorded pEC50.
Outgoing: < 4.73

Incoming: I have this compound here, "c1ccc(CCNc2ccnc3cc4ccccc4cc23)cc1" , and I need its recorded pEC50.
Outgoing: < 4.88

Ref: ChEMBL document CHEMBL1154198
